Reported Papp B→A values are given for each entry in this list.
tested on: MDR1 (P-gp); assay: Permeability from basolateral to apical side in dog MDCK cells expressing human MDR-1 gene; format: ADME, cell-based, Canis lupus familiaris; details: read-out: permeability

compound	test system	Papp B→A
CC(=O)N[C@@H](Cc1cc(F)cc(F)c1)[C@H](O)CNCc1cccc(C(C)C)c1	MDR1 (P-gp)	41 ×10⁻⁶ cm/s
CC(C)c1cccc(CN[C@H]2CS(=O)(=O)C[C@@H](Cc3ccccc3)[C@@H]2O)c1 (racemic)	MDR1 (P-gp)	24 ×10⁻⁶ cm/s
CC(C)c1cccc(CN[C@H]2CS(=O)(=O)C[C@@H](Cc3cccc(Br)c3)[C@@H]2O)c1 (racemic)	MDR1 (P-gp)	7.7 ×10⁻⁶ cm/s
CC(C)c1cccc(CN[C@H]2CS(=O)(=O)C[C@@H](Cc3ccc(O)c(Br)c3)[C@@H]2O)c1	MDR1 (P-gp)	33 ×10⁻⁶ cm/s

----------
system: MDR1 (P-gp); assay: Permeability from apical to basolateral side in dog MDCK cells expressing human MDR-1 gene; format: ADME, cell-based, Canis lupus familiaris; details: read-out: permeability
# binning rule on Papp A→B: c1 = under 4 ×10⁻⁶ cm/s, c2 = from 4 ×10⁻⁶ cm/s up to 7 ×10⁻⁶ cm/s, c3 = 7 ×10⁻⁶ cm/s and over

molecule	class label
CCCOc1cccc(C[C@@H]2CS(=O)(=O)C[C@H](NCc3cccc(C(C)C)c3)[C@H]2O)c1 (racemic)	c2
CC(C)c1cccc(CN[C@H]2CS(=O)(=O)C[C@@H](Cc3cccc(Br)c3)[C@@H]2O)c1 (racemic)	c2
CNC(=O)Oc1ccc(C[C@@H]2CS(=O)(=O)C[C@H](NCc3cccc(C(C)C)c3)[C@H]2O)cc1Br	c1
CCc1cc(C[C@@H]2CS(=O)(=O)C[C@H](NCc3cccc(C(C)C)c3)[C@H]2O)ccc1O	c3
CCCN1C(=O)OC[C@@H]1Cc1cc(C[C@@H]2CS(=O)(=O)C[C@H](NCc3cccc(C(C)C)c3)[C@H]2O)ccc1O	c1
CC(=O)N[C@@H](Cc1cc(F)cc(F)c1)[C@H](O)CNCc1cccc(C(C)C)c1	c1
CCCCc1cc(C[C@@H]2CS(=O)(=O)C[C@H](NCc3cccc(C(C)C)c3)[C@H]2O)ccc1O	c1
COc1ccc(C[C@@H]2CS(=O)(=O)C[C@H](NCc3cccc(C(C)C)c3)[C@H]2O)cc1Br	c1
CC(C)c1cccc(CN[C@H]2CS(=O)(=O)C[C@@H](Cc3ccccc3)[C@@H]2O)c1 (racemic)	c3
CC(C)c1cccc(CN[C@H]2CS(=O)(=O)C[C@@H](Cc3ccc(O)c(CO)c3)[C@@H]2O)c1	c1
CC(C)c1cccc(CN[C@H]2CS(=O)(=O)C[C@@H](Cc3ccc(O)c(Br)c3)[C@@H]2O)c1	c3
CC(C)c1cccc(CN[C@H]2CS(=O)(=O)C[C@@H](Cc3ccc(O)cc3)[C@@H]2O)c1 (racemic)	c3
CCCc1cc(C[C@@H]2CS(=O)(=O)C[C@H](NCc3cccc(C(C)C)c3)[C@H]2O)ccc1O	c2
CC(C)(C)c1cccc(CN[C@H]2CS(=O)(=O)C[C@@H](Cc3ccc(O)c(Br)c3)[C@@H]2O)c1	c3
CC(C)c1cccc(CN[C@H]2CS(=O)(=O)C[C@@H](Cc3ccc(O)c(CCO)c3)[C@@H]2O)c1	c1
